This listing pairs molecules with measured molar heat capacity at constant pressure.
experiment: molar heat capacity at constant pressure; conditions: 333.15 K; 101.33 kPa; Liquid; modulated-temperature differential scanning calorimetry MDSC
Answer with a number only, understood to be in J/K/mol.

molar heat capacity at constant pressure lookup needed for CCCCn1cc[n+](C)c1.O=S(=O)([O-])C(F)(F)F [1-butyl-3-methylimidazolium trifluoromethanesulfonate] , thanks.
446

molar heat capacity at constant pressure lookup needed for CCCCCCn1cc[n+](C)c1.O=S(=O)([O-])C(F)(F)F [1-hexyl-3-methylimidazolium trifluoromethanesulfonate] , thanks.
522

molar heat capacity at constant pressure lookup needed for CCCC[n+]1ccccc1.O=S(=O)([N-]S(=O)(=O)C(F)(F)F)C(F)(F)F [1-butylpyridinium bis[(trifluoromethyl)sulfonyl]imide] , thanks.
607

molar heat capacity at constant pressure lookup needed for CCn1cc[n+](C)c1.O=S(=O)([O-])C(F)(F)F [1-ethyl-3-methylimidazolium trifluoromethanesulfonate] , thanks.
395

Next:
molar heat capacity at constant pressure lookup needed for `CCCCCC[n+]1ccn(C)c1.O=S(=O)([N-]S(=O)(=O)C(F)(F)F)C(F)(F)F` , thanks.
685

molar heat capacity at constant pressure lookup needed for CCCCCCCCn1cc[n+](C)c1.O=S(=O)([O-])C(F)(F)F [1-octyl-3-methylimidazolium trifluoromethanesulfonate] , thanks.
603
